In this section, each of the compounds is paired with its reported z-score.
Assay: S. cerevisiae RM11-1a growth modifiers, primary screen, strain RM11-1a, OD600, basal, 24 h (AID 1177);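 also: cultures grown under basal conditions with no added stressor; test concentration not given here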
Conditions: OD600, 24 h, higher = more signal, called active from +8 up or from −8 down

# compound, z-score
measured = [
    ("CC(C)N1CC=CC23O[C@@H]4C=CCOC(=O)[C@@H]4[C@H]2C(=O)N(CCCO)[C@@H]3C1=O (stereo not given in full)", -1.68),
    ("OCCCC1=CC(c2ccc(CN3CCCC3)cc2)N(Cc2sc3ccccc3c2Cl)CC1 (stereo not given)", 0.922),
    ("CCCC[C@@H](O)C1=C(COc2ccccc2)C[C@H]2C(=O)N(C)C(=O)[C@H]2[C@H]1CO", -3.3),
    ("C[C@@H]1ON(c2ccc(C(=O)OC(C)(C)C)cc2)[C@H](c2ccc(O)cc2)[C@H]1C(=O)N1C(=O)OC[C@H]1Cc1ccccc1", 0.351),
    ("COC(=O)CCCCCCC(=O)Nc1ccc(NC(=O)CCCC[P+](c2ccccc2)(c2ccccc2)c2ccccc2)cc1", 1.68),
    ("COC(=O)c1c2oc(c1C(=O)OC)C(=O)N(Cc1ccccc1)Cc1cn(nn1)C[C@H](Cc1ccccc1)NC(=O)N[C@H](CO)CC2", -1.38),
    ("C=CCC(OC(C)=O)[C@@H]1[C@@H](N(Cc2cc3ccccc3o2)C(=O)Cc2ccc(F)cc2)c2cc(OCCCO)ccc2N1C(=O)c1ccc2ccccc2c1 (stereo not given in full)", -0.41),
    ("COc1ccc([Si](C)(C)[C@@H]2[C@@H](CC(=O)N(CCO)Cc3ccccc3)O[C@]3(C(=O)N(Cc4cccc(N5C(=O)c6cccc7cccc5c67)c4)c4ccccc43)[C@H]2C)cc1", 0.323),
    ("CN1C(=O)C2C=CC(C(O)c3ccccn3)N(N(c3ccccc3)c3ccccc3)C2C1=O (stereo not given)", 0.429),
    ("O=C1C[C@@](C(=O)NCCN2CCOCC2)(c2ccc([N+](=O)[O-])cc2)[C@@H](c2ccc(CO)cc2I)N1C1CCCCC1", -1.19),
    ("CCOC(=O)C1=CC[C@@H](c2ccccc2C(F)(F)F)N(S(=O)(=O)c2ccc(C)cc2)[C@H]1c1ccc(C#N)cc1", -0.171),
    ("COc1ccc([Si](C)(C)[C@@H]2[C@@H](CCO)O[C@]3(C(=O)N(Cc4ccc(N5CCCCC5=O)cc4)c4ccccc43)[C@H]2C)cc1", 2.69),
    ("COC(=O)c1c2oc(c1C(=O)OC)C(=O)N(C)Cc1cn(nn1)C[C@H](Cc1ccccc1)NC(=O)N[C@H](CO)CC2", 1.2),
    ("COCCCNC(=O)[C@@]1(Cc2ccccc2N=[N+]=[N-])N=C(c2ccc(OCCCO)cc2)O[C@H]1c1ccccc1", -0.115),
    ("COC1OC[C@]2(C)[C@H]3C4=C(CN2C(=O)OC(C)(C)C)[C@H](C)C(CO)C(CO)C4CC[C@@H]13 (stereo not given in full)", 1.06),
]

Origin of the recorded values: PubChem BioAssay
